molecular target: FAAH (Homo sapiens (Human), UniProt O00519); assay: Assay Method 2: FAAH assay, cells transfected with human FAAH; type: biochemical; details: T84 or human FAAH-transfected SK-N-MC cell homogenate, 3H-AEA tracer 80 nM, 1 h at rt
Sequence (O00519 whole entry): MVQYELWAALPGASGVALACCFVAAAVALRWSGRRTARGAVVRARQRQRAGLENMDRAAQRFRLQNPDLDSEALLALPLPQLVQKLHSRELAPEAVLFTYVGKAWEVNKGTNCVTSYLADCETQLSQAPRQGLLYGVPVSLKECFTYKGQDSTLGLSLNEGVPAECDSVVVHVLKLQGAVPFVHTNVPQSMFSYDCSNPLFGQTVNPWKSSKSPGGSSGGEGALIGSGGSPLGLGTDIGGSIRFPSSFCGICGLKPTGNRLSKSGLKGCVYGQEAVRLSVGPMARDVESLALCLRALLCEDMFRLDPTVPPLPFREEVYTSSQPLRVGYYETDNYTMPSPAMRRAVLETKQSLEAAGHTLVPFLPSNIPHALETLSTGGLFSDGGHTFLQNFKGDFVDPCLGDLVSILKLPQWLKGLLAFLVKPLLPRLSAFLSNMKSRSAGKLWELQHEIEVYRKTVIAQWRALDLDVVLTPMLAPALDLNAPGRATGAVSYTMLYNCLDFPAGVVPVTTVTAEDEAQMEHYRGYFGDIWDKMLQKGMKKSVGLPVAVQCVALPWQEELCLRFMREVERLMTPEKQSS
pIC50: −log10 of the molar value. Structures can show the parent of a compound that is named as a salt.
Would you please tag the item condition met when its pIC50 is 6 or above, and condition not met when it is below?

Solved cases below.
>>> print(df.to_string())
                                   compound        group_label
0  O=C(Nc1ccncn1)N1CCN(Cc2cnc3ccccc3c2)CC1 [Example 152]  condition not met
1  O=C(O)c1ccccc1NC(=O)N1CCN(Cc2cnc3ccccc3c2)CC1 [Example 140, (potassium salt)]  condition not met
2  O=C(Nc1ccccc1)N1CCN(Cc2ccc(Br)c(Br)c2)CC1 [Example 21]      condition met
3  O=C(Nc1nccs1)N1CCN(Cc2cnc3ccccc3c2)CC1 [Example 158]  condition not met

Item COC(=O)c1ccc(NC(=O)N2CCN(Cc3cnc4ccccc4c3)CC2)cc1 [Example 107] with pIC50 of 6 or above?
condition met

Item O=C(Nc1ccccc1)N1CCN(Cc2cc(Br)ccc2O)CC1 [Example 34] with pIC50 of 6 or above?
condition met

Item CC(C)c1ccc(CN2CCN(C(=O)Nc3ccccc3)CC2)cc1 [Example 32] with pIC50 of 6 or above?
condition met

Item O=C(Nc1ccncc1)N1CCN(Cc2ccc3c(c2)OC(F)(F)O3)CC1 [Example 151] with pIC50 of 6 or above?
condition not met

Item CN(C(=O)N1CCN(Cc2ccc(Br)c(Br)c2)CC1)c1ccccc1 [Example 160] with pIC50 of 6 or above?
condition not met

Item O=C(Nc1ccccc1)N1CCN(Cc2ccc3c(c2)OC(F)(F)O3)CC1 [Example 52] with pIC50 of 6 or above?
condition met

Item COC(=O)c1cccc(NC(=O)N2CCN(Cc3cnc4ccccc4c3)CC2)c1 [Example 106] with pIC50 of 6 or above?
condition met

Item O=C(Nc1cccnc1)N1CCN(Cc2cnc3ccccc3c2)CC1 [Example 142] with pIC50 of 6 or above?
condition not met
